# MIC values compiled below
- Tested on: Enterobacter aerogenes
- protocol: MIC in nutrient agar, Enterobacter aerogenes
- Assay type: cell-based, Enterobacter aerogenes (ATCC 13048)
- appliedConditions: Klebsiella aerogenes; Ea; pH 8.2; 30° C., 48 hours; read-out: Minimum Inhibitory Concentration (MIC)
Give the value, in units of µg/mL, as a plain number.

N#CSCOc1nsnc1OCSC#N [Example 8]: 250
N#CSc1nsnc1SC#N [Example 2, Bis(thiocyanato)-1,2,5-thiadiazole]: 100
N#CSCSc1nsnc1Cl [Example 3]: 100

Suppose we examine the molecule N#CSCOc1nsnc1Cl [Example 6] ; what MIC value has been reported?
50
